Target Desc: recombinant IRAK-4 kinase (Homo sapiens)
Construct: purchased Millipore, USA
Sequence (Q9NWZ3 1-460): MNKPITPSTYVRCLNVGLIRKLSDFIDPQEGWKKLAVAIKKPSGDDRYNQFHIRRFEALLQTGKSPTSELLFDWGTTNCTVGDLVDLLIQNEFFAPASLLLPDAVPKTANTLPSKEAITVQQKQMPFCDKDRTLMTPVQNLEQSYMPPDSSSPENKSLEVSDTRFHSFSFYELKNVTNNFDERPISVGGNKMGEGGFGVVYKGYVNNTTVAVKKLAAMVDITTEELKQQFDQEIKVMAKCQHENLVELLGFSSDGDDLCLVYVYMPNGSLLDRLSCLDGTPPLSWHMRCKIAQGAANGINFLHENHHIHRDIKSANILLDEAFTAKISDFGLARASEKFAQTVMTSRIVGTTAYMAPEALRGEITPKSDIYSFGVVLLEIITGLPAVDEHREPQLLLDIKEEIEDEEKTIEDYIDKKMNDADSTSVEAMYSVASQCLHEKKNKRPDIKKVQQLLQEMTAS
Protocol Notes: IRAK-4 biochemical assay (TR-FRET)
Assay Context: IRAK-4 enzyme, compound at 0.1 μM, 20 μM ATP
Description: Compounds were tested for their potential to inhibit IRAK-4 enzyme in a TR-FRET assay using recombinant IRAK-4 kinase from Millipore, USA. The assay buffer was 50 mM Tris-HCl pH 7.5, 20 mM MgCl2, 1 mM EGTA, 2 mM DTT, 3 mM MnCl2 and 0.01% Tween 20.5 ng of IRAK-4 kinase was used for the assay. […] The fluorescence emission at 615 nm and 665 nm were measured at an excitation of 340 nm and the percent inhibition was estimated from the ratio of the fluorescence intensities [(F665/F615)×10000]. […]
Counter-ions that a name gives are not always drawn.
Quantity Name: inhibition at 0.1 µM (%)

Cn1ncc2cc(N3CC[C@H](O)C3)c(NC(=O)c3coc(C4=CCNCC4)n3)cc21 [Example 34, hydrochloride]
0
Cn1ncc2cc(N3CC[C@H](O)C3)c(NC(=O)c3cnn4cccnc34)cc21 [Example 48, hydrochloride]
25
Cc1cc(-c2nc(C(=O)Nc3cc4c(cnn4C)cc3N3C4CCC3CC(O)C4)co2)ccn1 (stereo not shown)
5
Cc1cc(-c2nc(C(=O)Nc3cc4c(cnn4C)cc3N3CC[C@H](O)C3)co2)ccn1 [Example 11, hydrochloride]
95

1: Cc1cc(-c2nc(C(=O)Nc3cc4c(cnn4CC4CCNCC4)cc3N3CC[C@H](O)C3)co2)ccn1 [Example 44, hydrochloride]
2: CCc1cc(-c2nc(C(=O)Nc3cc4c(cnn4C)cc3N3CC[C@H](O)C3)co2)ccn1 [Example 42, hydrochloride]
3: Cn1ncc2cc(N3CC[C@@H](O)C3)c(NC(=O)c3cccc(N4CC[C@H](O)C4)n3)cc21
**Q:** In this exercise, place the 3 molecules in ascending sequence of their recorded inhibition at 0.1 µM. Present the labels in the sequence the task asks for.
**A:** 1, 3, 2

----------
Target Desc: recombinant IRAK-4 kinase (Homo sapiens, UniProt Q9NWZ3)
Construct: purchased Millipore, USA
Sequence (Q9NWZ3 1-460): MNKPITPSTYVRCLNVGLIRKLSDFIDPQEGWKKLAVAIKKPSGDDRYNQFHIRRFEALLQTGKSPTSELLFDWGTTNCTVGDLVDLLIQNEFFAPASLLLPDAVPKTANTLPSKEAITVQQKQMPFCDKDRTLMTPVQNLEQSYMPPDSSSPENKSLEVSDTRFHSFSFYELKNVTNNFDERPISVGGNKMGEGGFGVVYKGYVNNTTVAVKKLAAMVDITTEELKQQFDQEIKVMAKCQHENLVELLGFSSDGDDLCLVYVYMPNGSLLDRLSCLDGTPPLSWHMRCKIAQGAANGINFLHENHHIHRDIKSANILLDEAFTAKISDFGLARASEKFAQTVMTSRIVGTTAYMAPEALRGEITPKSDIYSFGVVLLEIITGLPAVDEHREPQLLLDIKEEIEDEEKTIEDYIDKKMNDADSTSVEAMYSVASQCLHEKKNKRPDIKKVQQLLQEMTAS
Protocol Notes: IRAK-4 biochemical assay (TR-FRET)
Assay Context: IRAK-4 enzyme, compound at 0.1 μM, 20 μM ATP
Structures can show the parent of a compound that is named as a salt.
Quantity Name: inhibition at 0.1 µM (%)

Cc1cc(-c2nc(C(=O)Nc3cc4nn(C)cc4cc3N3CCCC(F)C3)co2)ccn1 (stereo not drawn)
94
Cc1cc(-c2nc(C(=O)Nc3cc4c(cnn4C)cc3N3CCC(CO)CC3)co2)ccn1
96
Cc1cc(-c2nc(C(=O)Nc3cc4c(cnn4C)cc3N3CCC(F)CC3)co2)ccn1
94

a: Cn1ncc2cc(N3CCCCC3)c(NC(=O)c3coc(N4CC[C@H](O)C4)n3)cc21
b: Cc1cc(-c2nc(C)c(C(=O)Nc3cc4c(cnn4C)cc3N3CC[C@H](O)C3)o2)ccn1 [Example 36, hydrochloride]
**Q:** Between a and b , which one shows the larger inhibition at 0.1 µM value? Kindly give the label for the entry you pick.
**A:** a
(a: 95%, b: 2%)

I: Cn1ncc2cc(N3CC[C@H](O)C3)c(NC(=O)c3coc(-c4ccnc(N)c4)n3)cc21
II: Cc1cc(-c2nc(C(=O)Nc3cc4c(cnn4C)cc3N3CC[C@H](O)C3)c(C)o2)ccn1 [Example 41, hydrochloride]
III: CCn1ncc2cc(N3CC[C@H](O)C3)c(NC(=O)c3coc(-c4ccnc(C)c4)n3)cc21 [Example 32, hydrochloride]
**Q:** Arrange the 3 compounds from largest to smallest inhibition at 0.1 µM. Present the labels in the sequence the task asks for.
**A:** I, III, II

----------
Target Desc: recombinant IRAK-4 kinase (Homo sapiens, UniProt Q9NWZ3)
Protocol Notes: IRAK-4 biochemical assay (TR-FRET)
Assay Context: IRAK-4 enzyme, dose response, 20 μM ATP
Structures can show the parent of a compound that is named as a salt.
Quantity Name: IC50

CC(=O)Nc1cc(-c2nc(C(=O)Nc3cc4c(cnn4C)cc3N3CC[C@H](O)C3)co2)ccn1
< 0.1 µM

**Q:** Tell me reported IC50 for "Cn1cc2cc(N3CCCCC3)c(NC(=O)c3cccc(N4CC[C@H](N)C4)n3)cc2n1" , tested with recombinant IRAK-4 kinase (Homo sapiens, UniProt Q9NWZ3).
**A:** > 0.25 µM

**Q:** Tell me reported IC50 for "Cn1cc2cc(N3CCCCC3)c(NC(=O)c3cccc(N4CC[C@H](O)C4)n3)cc2n1" , tested with recombinant IRAK-4 kinase (Homo sapiens, UniProt Q9NWZ3).
**A:** > 0.25 µM

**Q:** Tell me reported IC50 for "Cc1cc(-c2nc(C(=O)Nc3cc4c(cnn4C)cc3N3CCC(O)(CO)CC3)co2)ccn1" , tested with recombinant IRAK-4 kinase (Homo sapiens, UniProt Q9NWZ3).
**A:** < 0.1 µM

**Q:** Tell me reported IC50 for "Cc1cc(-c2ncc(C(=O)Nc3cc4c(cnn4C)cc3N3CC[C@H](O)C3)o2)ccn1" , tested with recombinant IRAK-4 kinase (Homo sapiens, UniProt Q9NWZ3).
**A:** 0.1 to 0.25 µM

**Q:** Tell me reported IC50 for "Cn1ncc2cc(N3CCCCC3)c(NC(=O)c3coc(N4CC[C@H](O)C4)n3)cc21" , tested with recombinant IRAK-4 kinase (Homo sapiens, UniProt Q9NWZ3).
**A:** < 0.1 µM

**Q:** Tell me reported IC50 for "Cn1ncc2cc(N3CC[C@H](O)C3)c(NC(=O)c3coc(-c4ccnc(N)c4F)n3)cc21" , tested with recombinant IRAK-4 kinase (Homo sapiens, UniProt Q9NWZ3).
**A:** < 0.1 µM

**Q:** Tell me reported IC50 for Cc1cc(-c2nc(C(=O)Nc3cc4nn(C)cc4cc3N3CCCC(O)C3)co2)ccn1 (centres unmarked) [Example 13, hydrochloride] , tested with recombinant IRAK-4 kinase (Homo sapiens, UniProt Q9NWZ3).
**A:** < 0.1 µM

----------
Target Desc: recombinant IRAK-4 kinase (Homo sapiens)
Construct: purchased Millipore, USA
Protocol Notes: IRAK-4 biochemical assay (TR-FRET)
Assay Context: IRAK-4 enzyme, compound at 1 μM, 20 μM ATP
Where a name gives a salt, the structure may show the parent alone.
Quantity Name: inhibition at 1 µM (%)

Cc1cc(-c2nc(C(=O)Nc3cc4c(cnn4C)cc3N3CCC(O)CC3)co2)ccn1
95
Cc1cc(-c2nc(C(=O)Nc3cc4c(cnn4C)cc3N3CCC(O)(CO)CC3)co2)ccn1
98
Cn1ncc2cc(N3CC[C@H](O)C3)c(NC(=O)c3coc(-c4ccnc(N)c4F)n3)cc21
98
CCc1cc(-c2nc(C(=O)Nc3cc4c(cnn4C)cc3N3CC[C@H](O)C3)co2)ccn1 [Example 42, hydrochloride]
97
Cc1cc(-c2nc(C(=O)Nc3cc4c(cnn4C)cc3N3CC[C@H](O)C3)co2)ccn1 [Example 11, hydrochloride]
98
Cn1ncc2cc(N3CC[C@H](O)C3)c(NC(=O)c3cccc(N4CC[C@H](O)C4)n3)cc21
71
Cn1ncc2cc(N3CC[C@H](O)C3)c(NC(=O)c3coc(C4=CCNCC4)n3)cc21 [Example 34, hydrochloride]
41
Cc1cc(-c2nc(C(=O)Nc3cc4c(cnn4C)cc3N3CCCCC3)co2)ccn1 [Example 1, hydrochloride]
96
CC(=O)Nc1cc(-c2nc(C(=O)Nc3cc4c(cnn4C)cc3N3CC[C@H](O)C3)co2)ccn1
99
Cn1ncc2cc(N3CC[C@H](O)C3)c(NC(=O)c3cnn4cccnc34)cc21 [Example 48, hydrochloride]
80
Cn1ncc2cc(N3CC[C@H](O)C3)c(NC(=O)c3coc(-c4cccnc4N)n3)cc21
95
Cc1cc(-c2nc(C(=O)Nc3cc4c(cnn4C)cc3N3CC[C@H](O)C3)co2)cc(C)n1
84
Cn1cc2cc(N3CCCCC3)c(NC(=O)c3cccc(N4CC[C@H](N)C4)n3)cc2n1
83
Cn1ncc2cc(N3CC[C@H](O)C3)c(NC(=O)c3coc(-c4ccnc5[nH]ccc45)n3)cc21
92
Cn1ncc2cc(N3CCCCC3)c(NC(=O)c3coc(N4CC[C@H](O)C4)n3)cc21
91
Cn1ncc2cc(N3CC[C@@H](O)C3)c(NC(=O)c3cccc(N4CC[C@H](O)C4)n3)cc21
80
